- experimentalDetails: Compression strength (hardening property) of powder stored under load for 2 months
- Type: physicochemical
- conditionNotes: Load 200 (table head [Kg]; text 200 g/cm^2); 20-30° C., relative humidity 40-70%
In this section, each of the compounds is paired with its reported Compression strength after stored for 2 months.
measure: Compression strength after stored for 2 months (Kg/cm^2)

INSERT INTO assay_data (compound, unitdescriptor, assayvalue) VALUES
  ('O=C([O-])C[C@H](NCCN[C@@H](CC(=O)[O-])C(=O)[O-])C(=O)[O-].[Fe+3].[NH4+] [Example 79]', 'Kg/cm^2', 0.9),
  ('O=C([O-])C[C@H](NCCN[C@@H](CC(=O)[O-])C(=O)[O-])C(=O)[O-].[Na+].[Na+].[Ni+2] [Example 81]', 'Kg/cm^2', 1.2),
  ('O=C(O)CN(CCS(=O)(=O)O)CC(=O)O [Example 34, taurine-N,N-diacetic acid]', 'Kg/cm^2', 1.2),
  ('O=C(O)C[C@@H](C(=O)O)N(CC(=O)O)CC(=O)O [Example 15, (S)-aspartic acid-N,N-diacetic acid]', 'Kg/cm^2', 0.9);
